- Tested on: CEM-GXR cells
- experimental_details: Cell toxicity in HIV-1 infected CEM-GXR cultures (forward/side scatter)
- Assay type: cell-based
- condition_context: HIV-1NL4-3-infected CEM-GXR cells, Day 4
attribute_measured: CC50 (µM)
Write the answer as a number in µM, unit excluded.

Lab book: CC50 of COc1cc2ccc3c(OC)c(O)ccc3c2c(OC)c1O [PA, 1,5,7-trimethoxyphenanthrene-2,6-diol] noted as 26.8

###

- Test system: HIV-1Δvpu
- experimental_details: HIV-1Δvpu replication in CEM-GXR cells
- Format: cell-based
- condition_context: Human immunodeficiency virus 1, CEM-GXR, 96 h, read-out: EC50 HIV-1Δvpu
attribute_measured: pEC50
pEC50 here is simply -log10 of the concentration when that concentration is written in mol/L.

Value (pEC50, HIV-1Δvpu) for record Oc1cc(O)c2c(c1)OC1(c3ccc(O)c(O)c3)Oc3c4c(c5c(c3C2C1O)OC1(c2ccc(O)c(O)c2)Oc2cc(O)cc(O)c2C5C1O)OC(c1ccc(O)c(O)c1)C(O)C4 (centres unmarked) = 4.28

Hello, the source for this data is paper PMC4382154, in case you need it.
